Hello, the source for this data is the nanobody polyreactivity screen of Harvey et al. (2022), in case you need it.

protocol text: yeast display, Sf9 membrane polyspecificity reagent, FACS + sequencing; frameworks hold sequencing errors
outcome measure: polyreactivity (PSR sort gate)

{"residue sequence": "QVQLVESGGGLVQAGGSLRLRCAASGRTFSSNAMGWSRQAPGKERQLVASITWSGRTYYADSVKGRFTNSRDNAKNTVYLQMNSRNPEDHAVYYCATVYRQESYFYTLYYWGQGTQVTVSS", "polyreactivity (PSR sort gate)": "high polyreactivity"}
{"residue sequence": "QVQLVESGGGLVQAGGSLGISCAACGSIFSVNAMGWFRQAPGKERELVAGITISGGRTYYADSVKGRFTISRDNAKNTVYLQKNSLKPEDTAVYYCAAYVDPAYYYWGPGTQVTVSS", "polyreactivity (PSR sort gate)": "low polyreactivity"}
{"residue sequence": "QVQLVESGGGLVQAGGSLRLSCAASGSIFYGNAMGWYRQAPGKERELVAAISNVGRTDYADSVKGRFTISRDNAKNTVYLQMNSLKPEDTAVYYCAAGVYSGYNRYFAPRSWFGYYYWGQGTQVTVSS", "polyreactivity (PSR sort gate)": "low polyreactivity"}
{"residue sequence": "QVQLVESGGGLVQAGCSLRLSCAASGRTFDSYTMGWYRQAPGKERELVAAIRSSGGRTYADSVKGRFTISRDNAKNTVYLQMNSLKPEDTAVYYCDADRRGSHYYRYKYGYWGQGTQVTVSS", "polyreactivity (PSR sort gate)": "high polyreactivity"}
{"residue sequence": "QVQLVESGGGLVQAGGSLRLSCAASGFTFRYNAMGWYRQAPGKERELVATISWRGTSTYYADSVKGRFTISRDNAKNTVYLQMNSLKPEDTAVYYCATRSRDQYSVSYRLDYWGQGTQVTVSS", "polyreactivity (PSR sort gate)": "low polyreactivity"}
{"residue sequence": "QVQLVESGGGLVQAGGSLRLSCAASGSIFPQYAMGWYRQAPGTERELVDAITWSGSRTRYADSVKGRFTISRDNAKNTVYLQMNSLKPEDTAVYYCAARFNGQTYYYCGQGTQVTVSS", "polyreactivity (PSR sort gate)": "high polyreactivity"}
{"residue sequence": "QVQLVESGGGLVQAGGSLRLSCAAYGIIFYLYVMGWYRQAPGKERELVAVISYSGDDTYYADSVKGRFTISRDNAKNTVYLQMNSLKPEDTAVYYCAADYYYVYSSFGHYYWGQGTQVTVSS", "polyreactivity (PSR sort gate)": "low polyreactivity"}
{"residue sequence": "HVQLVESGGGLVQAGGSLRLSCAASGRTFYFNTMGWYRQAPGKEMELVASISYGSNTNYADSVKGRFTISRDNAKNTVYLQMNSLKPEDTAVYFCAVRWVYRTSSWGARYGRYDYWGQGTQVTVSS", "polyreactivity (PSR sort gate)": "high polyreactivity"}
{"residue sequence": "QVQLVESGGGLVQAGGSLRLSCAASGRTFTKYAMGWYRQAPGKERELVAAISRSGGSTYYADSVKGRFTISRDNAKNTVYLQMNSLKPEDTAVYYCAARGQYRYSFGDYSWGQGTQVTVSS", "polyreactivity (PSR sort gate)": "high polyreactivity"}
{"residue sequence": "QVQLVESVGGLVQAGGSLRLSCAASGFTIYPYAMGWYRQAPGKERELVAAISSSGGNTYYADSVKGRFTISRDNAKNTVYLQMNSLKPEDTAVYYCNARVYRWAIAPDDDSWGQGTQVTVSS", "polyreactivity (PSR sort gate)": "high polyreactivity"}

Next sequence, please.
Which measured polyreactivity (PSR sort gate) value corresponds to `QVQLVESGGGLVQAGGSLSLICAASGNTFPPYAMGWYRQAPGKERELVAAISCGGRTYYADSVKGRFTISRDNAKNTVYLQMNSLTPEDTAVYYCAVYVPNYYSYHYDYWGQGTQVTVSS` ?
high polyreactivity
